Test system: osteoclast differentiation
Test: Inhibitory effects on osteoclast differentiation (co-culture of bone marrow cells with osteoblast, TRAP staining)
Format: cell-based, mice
Settings: co-culture of bone marrow cells and osteoblast, 7 days, TRAP-positive osteoclasts versus controls
Parameter measured: % inhibitory activity on osteoclastogenesis (%)
API: value field is a number in %; no unit string.

Recorded % inhibitory activity on osteoclastogenesis, per entry:
CCc1sc(NCc2cccnc2)nc1-c1ccc(OCCCCCOc2ccc(C(=N)NO)cc2)cc1: 2.7
N=C(NO)c1ccc(OCc2ccc(COc3ccc(-c4nc(N)sc4CC4CCCC4)cc3)cc2)cc1: 68.8
COc1cc(C(=N)NO)ccc1OCCCCCOc1ccc(-c2nc(C)sc2C(C)C)cc1: 38.7
N=C(NO)c1ccc(OCCCCCOc2ccc(-c3nc(N4CCCCC4)sc3CC3CCCC3)cc2)cc1: 99.0

Now take the following compound into account.
Ask: What % inhibitory activity on osteoclastogenesis value was documented for this compound, "Cc1sc(N2CCCCC2)nc1-c1ccc(OCCCCCOc2ccc(C(=N)NO)cc2)cc1" ?
Result: 67.4

Cited source for all entries: patent US8178688B2
